Can you tell me % Activation for the items I'm about to list?
- testedOn: ΔF508-CFTR (Homo sapiens, UniProt P13569, DEL508-508)
- Construct: host or cells: CFBE41o-, doxycycline-inducible
- Sequence (P13569 with tags, fused parts or gaps DEL508-508): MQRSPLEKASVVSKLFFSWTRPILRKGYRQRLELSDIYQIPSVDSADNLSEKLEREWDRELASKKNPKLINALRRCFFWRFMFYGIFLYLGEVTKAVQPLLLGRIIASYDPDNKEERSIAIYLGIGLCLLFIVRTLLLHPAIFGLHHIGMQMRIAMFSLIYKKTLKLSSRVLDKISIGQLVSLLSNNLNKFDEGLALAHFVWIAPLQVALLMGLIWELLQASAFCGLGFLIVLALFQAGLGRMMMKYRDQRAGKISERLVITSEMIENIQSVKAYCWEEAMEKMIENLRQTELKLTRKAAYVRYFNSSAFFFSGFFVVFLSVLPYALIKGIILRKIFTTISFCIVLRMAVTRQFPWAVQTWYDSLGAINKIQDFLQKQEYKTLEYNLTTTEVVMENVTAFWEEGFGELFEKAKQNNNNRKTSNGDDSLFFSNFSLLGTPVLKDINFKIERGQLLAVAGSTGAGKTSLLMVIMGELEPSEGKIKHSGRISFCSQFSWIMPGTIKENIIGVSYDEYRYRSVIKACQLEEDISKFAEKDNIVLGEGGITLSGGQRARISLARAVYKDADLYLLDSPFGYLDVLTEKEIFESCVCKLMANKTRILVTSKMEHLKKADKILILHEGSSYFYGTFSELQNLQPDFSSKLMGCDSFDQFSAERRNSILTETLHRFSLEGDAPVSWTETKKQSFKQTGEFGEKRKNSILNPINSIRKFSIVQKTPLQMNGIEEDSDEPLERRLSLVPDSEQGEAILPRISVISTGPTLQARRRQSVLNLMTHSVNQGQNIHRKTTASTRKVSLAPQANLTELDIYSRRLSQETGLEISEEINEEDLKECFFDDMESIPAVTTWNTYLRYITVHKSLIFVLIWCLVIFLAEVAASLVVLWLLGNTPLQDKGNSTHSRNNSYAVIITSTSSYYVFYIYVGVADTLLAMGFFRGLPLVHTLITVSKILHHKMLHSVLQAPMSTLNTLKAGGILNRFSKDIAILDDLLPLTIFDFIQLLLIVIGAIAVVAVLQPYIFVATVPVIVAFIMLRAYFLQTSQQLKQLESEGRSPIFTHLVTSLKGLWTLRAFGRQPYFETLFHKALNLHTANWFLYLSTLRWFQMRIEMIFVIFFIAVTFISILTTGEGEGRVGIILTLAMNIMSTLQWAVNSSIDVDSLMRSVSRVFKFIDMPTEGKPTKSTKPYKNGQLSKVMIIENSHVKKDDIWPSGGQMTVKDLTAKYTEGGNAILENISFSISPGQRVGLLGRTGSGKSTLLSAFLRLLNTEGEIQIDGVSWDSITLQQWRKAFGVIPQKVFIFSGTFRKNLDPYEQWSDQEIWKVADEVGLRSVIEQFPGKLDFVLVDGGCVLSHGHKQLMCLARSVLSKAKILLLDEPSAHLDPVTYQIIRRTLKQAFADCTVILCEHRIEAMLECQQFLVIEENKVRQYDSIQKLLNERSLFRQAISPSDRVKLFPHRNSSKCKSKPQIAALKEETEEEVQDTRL
- protocolDescription: CFTR cell surface levels using HRP-tagged ΔF508-CFTR expressing CFBE cells, intrinsic corrector capacity
- Type: cell-based
- conditionLabel: HRP-tagged ΔF508-CFTR CFBE41o- cells, compounds alone (intrinsic corrector capacity), 20 hours at 33° C.; positive control 3 μM corrector
One number for each entry, in %.

>>> testvalue("Cc1nn(-c2ccccc2)c2nc(C(=O)O)cc(-c3ccc(N4CC(C)(C)C4)cc3)c12 [compound 73]")
110.1
>>> testvalue("Cc1nn(-c2ccccc2)c2nc(C(=O)O)cc(-c3ccc(N4CCN(S(C)(=O)=O)CC4)cc3)c12 [compound 53]")
72.97
>>> testvalue("Cc1nn(-c2ccccc2)c2nc(C(=O)O)cc(-c3ccc(N4CCCC4)cc3)c12 [compound 25]")
93.1
>>> testvalue("CC(=O)NC1CCN(c2cc(C(=O)O)nc3c2c(C)nn3-c2ccccc2)CC1 [compound 292]")
15.095

For every record below, what is its % Activation?
1. CC(C)c1nn(C2CCCCC2)c2nc(C(=O)O)cc(C3=CCN(C(=O)OC(C)(C)C)CC3)c12 [compound 371]
2. Cc1nn(-c2ccccc2)c2nc(C(=O)O)cc(N3CCC(F)CC3)c12 [compound 297]
3. CC(C)c1nn(-c2ccnc(N3CCOCC3)c2)c2nc(C(=O)O)cc(-c3ccc(N4CCOCC4)cc3)c12 [compound 201]
4. COCCN(C)c1ccc(-c2cc(C(=O)O)nc3c2c(C(C)C)nn3C2CCCCC2)cc1 [compound 184]
5. CN(C)Cc1nn(-c2ccccc2)c2nc(C(=O)O)cc(-c3ccc(N4CCOCC4)cc3)c12 [compound 87]
6. Cc1nn(-c2cccc(S(C)(=O)=O)c2)c2nc(C(=O)O)cc(-c3ccc(N4CCOCC4)cc3)c12 [compound 38]

116.35
50.78
251.3
170.25
28.91
23.86

###

- testedOn: ΔF508-CFTR (Homo sapiens, UniProt P13569, DEL508-508)
- Construct: host or cells: CFBE41o-, doxycycline-inducible
- protocolDescription: CFTR cell surface levels using HRP-tagged ΔF508-CFTR expressing CFBE cells, intrinsic corrector capacity
- Assay type: cell-based
- conditionLabel: HRP-tagged ΔF508-CFTR CFBE41o- cells, compounds alone (intrinsic corrector capacity), 20 hours at 33° C.; positive control 3 μM corrector
- From the text: Measuring CFTR Cell Surface Levels Using HRP-Tagged AF508-CFTR Expressing CFBE Cells The HRP-tagged AF508-CFTR cell assay measures the expression of CFTR-ΔF508 at the plasma membrane. […] When HRP-tagged AF508-CFTR is present at the plasma membrane, the HRP enzyme activity can be measured. The amount of CFTR-ΔF508 that can be rescued to the plasma membrane is correlated with the amount of functional enzyme that can be measured. […]
% Activation of 80% or higher: 1.0. Under 80%: 0.0.

Does % Activation meet or surpass 80% for Cc1cccc(-n2nc(C(C)C)c3c(N4CC5(CCOCC5)C4)cc(C(=O)O)nc32)c1 [compound 258] ?
1.0

Does % Activation meet or surpass 80% for Cc1nn(-c2ccccc2)c2nc(C(=O)O)cc(N3CCC4(CCNC4=O)C3)c12 (stereo not drawn) [compound 313] ?
0.0

Does % Activation meet or surpass 80% for Cc1nn(-c2ccccc2)c2nc(C(=O)O)cc(N3CCC(N4CCOCC4)CC3)c12 [compound 324] ?
1.0

###

Can you tell me % Activation for the items I'm about to list?
- testedOn: ΔF508-CFTR (Homo sapiens, UniProt P13569, DEL508-508)
- Construct: host or cells: CFBE41o-, doxycycline-inducible
- protocolDescription: CFTR cell surface levels using HRP-tagged ΔF508-CFTR expressing CFBE cells, intrinsic corrector capacity
- Format: cell-based
- conditionLabel: HRP-tagged ΔF508-CFTR expressing CFBE cells; intrinsic corrector capacity (no co-corrector); 33° C., 20 hours
- Text: Measuring CFTR Cell Surface Levels Using HRP-Tagged AF508-CFTR Expressing CFBE Cells The HRP-tagged AF508-CFTR cell assay measures the expression of CFTR-ΔF508 at the plasma membrane. […] When HRP-tagged AF508-CFTR is present at the plasma membrane, the HRP enzyme activity can be measured. The amount of CFTR-ΔF508 that can be rescued to the plasma membrane is correlated with the amount of functional enzyme that can be measured. […]

>>> testvalue("CC(C)c1nn(-c2ccc(F)cc2)c2nc(C(=O)O)cc(OCCC3CCOCC3)c12")
"142.9%"
>>> testvalue("O=C(O)c1cc(N2CCC(CCN3CCCC3)CC2)c2c(C3CCC3)nn(-c3ccccc3)c2n1")
"294%"
>>> testvalue("CCN(CC)CCCOc1cc(C(=O)O)nc2c1c(C1CCC1)nn2-c1ccccc1")
"98.14%"
>>> testvalue("COCCC1(COc2cc(C(=O)O)nc3c2c(C2CCC2)nn3-c2ccccc2)CC1")
"107.5%"
>>> testvalue("CC1(O)CN(c2cc(C(=O)O)nc3c2c(C2CCC2)nn3-c2ccccc2)C1")
"49.72%"

For every record below, what is its % Activation?
1. CN(C)CCC1CCN(c2cc(C(=O)O)nc3c2c(C2CCC2)nn3-c2ccccc2)CC1
2. O=C(O)c1cc(N2CCC(O)(CCO)CC2)c2c(C3CCC3)nn(-c3ccccc3)c2n1
3. CC(C)(C)OC(=O)N1CCC(Oc2nn(-c3ccccc3)c3nc(C(=O)O)cc(-c4ccc(N5CCC(C#N)CC5)nc4)c23)CC1
4. CC(C)c1nn(-c2ccc(F)cc2)c2nc(C(=O)O)cc(N3CCC4(CC3)OCCO4)c12

1. 243.3%
2. 87.52%
3. 189.7%
4. 174.4%

###

- testedOn: ΔF508-CFTR (Homo sapiens, UniProt P13569, DEL508-508)
- Construct: host or cells: CFBE41o-, doxycycline-inducible
- protocolDescription: CFTR cell surface levels using HRP-tagged ΔF508-CFTR expressing CFBE cells, in the presence of a co-corrector
- Format: cell-based
- conditionLabel: HRP-tagged ΔF508-CFTR expressing CFBE cells, in the presence of 3 μM co-corrector; read-out: EC50
- Excerpt: Measuring CFTR Cell Surface Levels Using HRP-Tagged AF508-CFTR Expressing CFBE Cells The HRP-tagged AF508-CFTR cell assay measures the expression of CFTR-ΔF508 at the plasma membrane. […] When HRP-tagged AF508-CFTR is present at the plasma membrane, the HRP enzyme activity can be measured. The amount of CFTR-ΔF508 that can be rescued to the plasma membrane is correlated with the amount of functional enzyme that can be measured. […]
assayEndpoint: log10(EC50) (log10 of the value in nM)
All values: log10 EC50 [nM].

The following compounds have reported results that may help.
>>> testvalue("CC(C)Oc1nn(C2CCCCC2)c2nc(C(=O)O)cc(-c3ccc(CN4CC(N(C)C)C4)cc3)c12")
3.04
>>> testvalue("CC(C)CN1C[C@@H]2CN(c3cc(C(=O)O)nc4c3c(C(C)C)nn4-c3ccc(F)cc3)C[C@@H]2C1")
3.22
>>> testvalue("CN1CC(Oc2cc(C(=O)O)nc3c2c(C2CCC2)nn3-c2ccccc2)C1")
3.39
>>> testvalue("CC1(COc2cc(C(=O)O)nc3c2c(C2CCC2)nn3-c2ccccc2)COCOC1")
1.83
>>> testvalue("O=C(O)c1cc(N2CCC(N3CCOCC3)CC2)c2c(C3CCC3)nn(-c3ccc(F)c(F)c3)c2n1")
2.26

For every record below, what is its log10(EC50)?
1. O=C(O)c1cc(N2CC3(CCC3)C2)c2c(C3CCC3)nn(-c3ccccc3)c2n1
2. CC(C)c1nn(C2CCN(CC#N)CC2)c2nc(C(=O)O)cc(-c3ccc(N4CCOCC4)cc3)c12
3. O=C(O)c1cc(N2CCS(=O)(=O)CC2)c2c(C3CCC3)nn(-c3ccccc3)c2n1

1. 2.95
2. 3.52
3. 3.52

###

- testedOn: ΔF508-CFTR (Homo sapiens, UniProt P13569, DEL508-508)
- Construct: host or cells: CFBE41o-, doxycycline-inducible
- protocolDescription: CFTR cell surface levels using HRP-tagged ΔF508-CFTR expressing CFBE cells, intrinsic corrector capacity
- Format: cell-based
- conditionLabel: HRP-tagged ΔF508-CFTR CFBE41o- cells, compounds alone (intrinsic corrector capacity), 20 hours at 33° C.; read-out: EC50
Can you tell me pEC50 for the items I'm about to list?
One number for each entry, as −log10 of the molar value.

>>> testvalue("COCCN(C)c1ncc(-c2cc(C(=O)O)nc3c2c(C(C)C)nn3-c2cccc(N3CCOCC3)c2)cn1")
5.83
>>> testvalue("COc1ccc(-n2nc(C)c3c(-c4ccc(N5CCOCC5)cc4)cc(C(=O)O)nc32)cn1")
5.48

For every record below, what is its pEC50?
1. CC(C)c1nn(-c2ccccc2)c2nc(C(=O)O)cc(-c3cnc(N4CCOCC4)nc3)c12
2. Cc1nn(-c2ccccc2)c2nc(C(=O)O)cc(-c3ccc(N4CC5(COC5)C4)cc3)c12
3. Cc1nn(-c2ccccc2)c2nc(C(=O)O)cc(C3=CCOCC3)c12
4. COC(=O)N1CC(c2nn(-c3ccccc3)c3nc(C(=O)O)cc(-c4ccc(N5CCOCC5)cc4)c23)C1
5. Cc1nn(-c2cc(F)cc(F)c2)c2nc(C(=O)O)cc(-c3ccc(N4CCOCC4)cc3)c12
6. Cc1nn(-c2ccccc2)c2nc(C(=O)O)cc(OC[C@H](F)C3CCN(C)CC3)c12

1. 6.16
2. 5.77
3. 5.48
4. 5.48
5. 6.06
6. 5.30

meta.source: patent US9796711B2
